Source: PubChem BioAssay AID624296

experiment: A quantitative high throughput screen for small molecules that induce DNA re-replication in MCF 10a normal breast cells.; further: nearly all actives have a fitted effect of over 50% in size; details: MCF 10A DNA re-replication, Hoechst nuclear intensity, 48 h; series mostly up to 46.1 µM
Hit rate of the full screen: of about 350,000 compounds, about 9,900 (2.8%) were called active. Inconclusive results (about 15%) are left out. This is one part of a sample in which actives are shown more often than they occur.
PROPERTY LABEL: outcome

MOLECULE	DATA VALUE
CCN(CC)c1ccc(/C=N/Nc2nc(C)cc(=O)[nH]2)cc1	inactive
COCC(=O)N=Nc1c(O)[nH]c2ccccc12	inactive
COc1ccc(-c2ccc3c(c2)C2CC3CCN2CCC#N)cc1 (stereo not drawn)	inactive

====

experiment: A quantitative high throughput screen for small molecules that induce DNA re-replication in MCF 10a normal breast cells.; further: nearly all actives have a fitted effect of over 50% in size; conditions: MCF 10A DNA re-replication, Hoechst nuclear intensity, 48 h; series mostly up to 46.1 µM
Hit rate of the full screen: of about 350,000 compounds, about 9,900 (2.8%) were called active. Inconclusive results (about 15%) are left out. The call rests on the fitted dose curve; in most records, active means well fitted activation curve with a large enough effect; inconclusive means small, poorly fitted or top-dose-only effect; inactive means no such curve, though single readings can be large or run the other way. Shown is part of a subset that was picked to be rich in actives.
Outcome codes: 1 for active, 0 for inactive

MOLECULE	GROUP
COc1ccc(CNCCCn2cnc3c(OCc4ccccc4)ncnc32)cc1	0
CN(C)CCCn1c(N)c(C#N)c2nc(C#N)c(C#N)nc21	1
COc1ccc(OC)c(/C(C)=N\NC(=O)c2cc3cc(Cl)ccc3n2C)c1	1
Cc1cccc(NC(=O)/C=C/c2ccc3c(c2)OCO3)n1	0
COc1ccc(C2=NN(C(=O)CCC(=O)O)C(c3cccs3)C2)cc1OC (stereo unspecified)	0
O=C(/C=C\c1ccc2c(c1)OCO2)NC1(C(=O)Nc2ccc3c(c2)OCCO3)CCCCC1	0
S=c1[nH]nc(-c2ccc(Cl)cc2)n1CC1CCCO1 (stereo unspecified)	0
O=C(Cc1ccc(NC(=O)C2CCCN(C(=O)CCc3ccccc3)C2)cc1)Nc1ccc(C(=O)N2CCOCC2)cc1 (stereo unspecified)	0
CC(=O)c1cc(C#N)c(N2CCCCC2)nc1C	0
CC(OC(=O)Cc1ccc(F)cc1)C(=O)N1CCc2ccccc21 (stereo unspecified)	0
Cc1cccc(C)c1NC(=O)CN(C)C(=O)CCC(=O)c1ccccc1	0

====

test: A quantitative high throughput screen for small molecules that induce DNA re-replication in MCF 10a normal breast cells.; further: nearly all actives have a fitted effect of over 50% in size; details: MCF 10A DNA re-replication, Hoechst nuclear intensity, 48 h; series mostly up to 46.1 µM
Among all 350,000 compounds or so, about 9,900 (2.8%) were called active. Roughly 15% stayed inconclusive and do not appear here. Calls come from the whole dose curve; as a rule, active = well fitted activation curve with a large enough effect; inconclusive = small, poorly fitted or top-dose-only effect; inactive = no such curve, though single readings can be large or run the other way. The full list was thinned out, with actives kept by preference.
Labels: active, inactive

COMPOUND	GROUP
COc1cc(/C=C2/C(=O)NN(c3cccc(Cl)c3)C2=O)cc(Br)c1O	inactive
O=C(Nc1cc(-c2ccccc2)nn1-c1ccccc1F)c1ccc([N+](=O)[O-])cc1	inactive
CCOC(=O)C1=C(C)N(C[C@@H]2CC[C@@H](Cc3ccc(-c4ccccc4)cc3)O2)C(=O)NC1c1ccc([N+](=O)[O-])cc1 (stereo partly specified)	inactive
Cc1ccc(S(=O)(=O)Nc2ccc3c(c2)C(=O)N([C@H](C)CO)C[C@@H](C)[C@@H](CN(C)C(=O)Nc2cccc4ccccc24)O3)cc1	inactive
Cc1ccc(Nc2c(O)nc[nH]c2=O)cc1C	inactive
CSc1nc(N(C)NC(=O)c2cccc(C)c2)c2ccccc2n1	active

====

test: A quantitative high throughput screen for small molecules that induce DNA re-replication in MCF 10a normal breast cells.; further: nearly all actives have a fitted effect of over 50% in size; conditions: MCF 10A DNA re-replication, Hoechst nuclear intensity, 48 h; series mostly up to 46.1 µM
Screen size: about 350,000 compounds; about 9,900 (2.8%) were called active. Inconclusive results (about 15%) are left out. Calls come from the whole dose curve; as a rule, active = well fitted activation curve with a large enough effect; inconclusive = small, poorly fitted or top-dose-only effect; inactive = no such curve, though single readings can be large or run the other way. The sample as a whole holds a higher share of actives than the screen did.
Labels: Y for active, N for inactive

MOLECULE	GROUP
CC(=O)c1c(N2CCOCC2)nc(=S)n(Cc2ccccc2)c1C	N
CC(=O)c1c(N2CCN(c3ccc(F)cc3)CC2)nc(=S)n(-c2ccccc2)c1C	N
CCOC(=O)[C@@H]1[C@H]2COc3ccc(Br)cc3[C@H]2N2C(=O)N(c3ccc(C)cc3)C(=O)[C@@]12C	N
O=C(CSc1nc2ccccc2c(=O)n1Cc1ccc(F)cc1)NCC1CCCO1 (stereo not given)	N
O=C(Nc1ccccc1)Nc1nc2ccccc2s1	N
Cc1ccc(S(=O)(=O)N(C)C)cc1NC(=O)CN1c2cccc3cccc(c23)S1(=O)=O	N
Cc1ccc(-c2noc(-c3ccccc3C(=O)NCC3CCCO3)n2)cc1 (stereo not given)	N
Cc1cccn2c(=O)c3cc(C(=O)NCC4CCCO4)c(=N)n(Cc4ccc(F)cc4)c3nc12 (stereo not given)	Y
CC(=O)c1c(N2CCOCC2)nc(=S)n(-c2cc(C)ccc2C)c1C	Y
COc1ccc(CCn2c(=N)c(C(=O)NCc3ccco3)cc3c(=O)n4cccc(C)c4nc32)cc1	Y

====

experiment: A quantitative high throughput screen for small molecules that induce DNA re-replication in MCF 10a normal breast cells.; further: nearly all actives have a fitted effect of over 50% in size; further: potency means the concentration at half of the fitted maximal effect; settings: MCF 10A DNA re-replication, Hoechst nuclear intensity, 48 h; series mostly up to 46.1 µM
About 9,900 (2.8%) of roughly 350,000 compounds were called active. Not shown: some 15% with an inconclusive outcome. Shown is part of a subset that was picked to be rich in actives.
PROPERTY LABEL: Potency

QUERY SMILES	DATA VALUE
C[C@H](NC(=O)OC(C)(C)C)c1nnc(SCC(N)=O)o1	inactive
O=C(COC(=O)c1ccc(Br)o1)NC12CC3CC(CC(C3)C1)C2	inactive
COC(C/C=C/C(=O)[C@@H](C)OCc1ccccc1)OC	18.4 µM (active)
O=C(NCc1ccc2c(c1)OCO2)c1ccc(Cl)s1	inactive
CCOC(=O)c1cc2c(=O)n3ccccc3nc2n(CC(C)C)c1=NC(=O)c1c(-c2c(F)cccc2Cl)noc1C	3.26 µM (active)
O=C(OCC(=O)N1CCc2ccccc21)c1ccc([N+](=O)[O-])cc1	inactive

====

assay: A quantitative high throughput screen for small molecules that induce DNA re-replication in MCF 10a normal breast cells.; further: nearly all actives have a fitted effect of over 50% in size; details: MCF 10A DNA re-replication, Hoechst nuclear intensity, 48 h; series mostly up to 46.1 µM
About 9,900 (2.8%) of roughly 350,000 compounds were called active. Not shown: some 15% with an inconclusive outcome. The call rests on the fitted dose curve; in most records, active means well fitted activation curve with a large enough effect; inconclusive means small, poorly fitted or top-dose-only effect; inactive means no such curve, though single readings can be large or run the other way. Many of the other results were omitted from the sample, so actives are more common in it than they were.
Outcome codes: true for active, false for inactive

COMPOUND	GROUP
COc1ccccc1NC(=O)N(O)C1(C#N)CCCCC1	false
C(=N/Nc1cc(N2CCOCC2)nc(N2CCOCC2)n1)/c1ccccc1	true
COc1ccc2c(c1)C(SCC(=O)NCc1ccccc1)CC(C)(C)O2 (stereo unspecified)	false
COc1cc(/C=N/Nc2ccc(C)cc2)cc(Br)c1O	true
COc1cc(/C=N/NC(=S)Nc2cccnc2)cc(OC)c1O	false
O=C(N[C@H]1C/C=C\C(c2ccc(F)cc2)N(Cc2ccccc2)C(=O)C1)OCC1c2ccccc2-c2ccccc21 (stereo partly specified)	false
O=C1NCC(c2ccccc2)(c2ccccc2)C(=O)N1	false
Cc1nnc(NC(=O)c2ccc3nccnc3c2)s1	false
CCNc1nc(NCC)nc(N/N=C/c2ccc(O)c(OC)c2)n1	false
Cc1occc1C(=O)Nc1cccc(S(=O)(=O)N2CCOCC2)c1	false
O=C(Nc1ccn(CCCNCc2ccc3[nH]ccc3c2)c(=O)n1)OCc1ccccc1	false
COc1ccc(C(=O)COC(=O)CN2C(=O)C3CC=CCC3C2=O)c(OC)c1 (stereo unspecified)	false
O=c1c2ccccc2[nH]c(=S)n1CCN1CCC(=C(c2ccc(F)cc2)c2ccc(F)cc2)CC1	true
CC(Sc1nnc(C2CC2)n1C1CC1)C(=O)Nc1ccc(C(N)=O)cc1 (stereo unspecified)	false
COc1ccccc1Cn1c(=S)[nH]c2cc(C(=O)N3CCN(C)CC3)ccc2c1=O	false
C[C@H](CO)N1C[C@H](C)[C@@H](CN(C)Cc2ccc(-c3ccccc3)cc2)Oc2ccc(NC(=O)Cn3cnnn3)cc2C1=O	false
CN(C)S(=O)(=O)c1cccc(-c2nn(-c3ccccc3)cc2/C=C2\SC(=S)N(CC(=O)O)C2=O)c1	false
Cc1cc(N2CCN(c3ccccc3)CC2)nc(N2CCOCC2)n1	false
CN(C)C(=O)N=NC(=O)N(C)C	false
c1ccc2c(c1)OC1OC2Oc2ccccc21	false
CCOc1c(OC)cccc1C(=O)NCC1(c2ccccc2)CCCC1	true
CCOC(=O)c1c(C)[nH]c2c1-c1ccccc1C(=O)C2=O	true
Cc1ccc(-c2cc(C(=O)Nc3nn[nH]n3)c3ccccc3n2)c(C)c1	false
CC(C)(C)Cc1nnc(NC(=O)c2cc(-c3ccccc3)nc3ccccc23)s1	false
COC(=O)c1cc(-c2cccs2)nc2ccccc12	false
COc1ccc(CN(C)C(=O)c2cc(-c3ccc(C)cc3C)nc3ccccc23)c(OC)c1OC	true

====

test: A quantitative high throughput screen for small molecules that induce DNA re-replication in MCF 10a normal breast cells.; further: nearly all actives have a fitted effect of over 50% in size; details: MCF 10A DNA re-replication, Hoechst nuclear intensity, 48 h; series mostly up to 46.1 µM
The whole screen tested about 350,000 compounds, of which about 9,900 (2.8%) were called active. Another 15% or so got no clear call; they are omitted. Calls come from the whole dose curve; as a rule, active = well fitted activation curve with a large enough effect; inconclusive = small, poorly fitted or top-dose-only effect; inactive = no such curve, though single readings can be large or run the other way. The full list was thinned out, with actives kept by preference.
Labels: label 1 = active, label 0 = inactive

COMPOUND	GROUP
COc1ccc(Cc2nnc(N/N=C/c3ccccc3O)[nH]c2=O)cc1OC	label 1
CN(CC(=O)Nc1ccc(OC(F)F)cc1)S(=O)(=O)/C=C/c1ccccc1	label 0
CN(C)c1ccc(/C=N/N(Cc2ccccc2)c2ccccc2)cc1	label 0
O=C(O)c1ccc(Cn2cnc3c(=S)nc[nH]c32)cc1	label 0
O=C(COC(=O)/C=C/c1cccc(Cl)c1)NCc1cccs1	label 0
Cc1nnc(N/N=C/c2cccs2)[nH]c1=O	label 0
Cc1noc(C)c1C(=O)OC(C)C(=O)Nc1ccc2c(c1)OCO2 (stereo not drawn)	label 0
CN(CC(=O)NCC(c1ccccc1)N1CCCC1)S(=O)(=O)c1ccc(Cl)cc1 (stereo not drawn)	label 0
COc1cccc(NC(=O)CSc2nnc(C3CCCCC3)n2N)c1	label 0
Cc1noc(C)c1S(=O)(=O)N(C)C[C@H]1Oc2ccc(NC(=O)C3CCCCC3)cc2C(=O)N([C@H](C)CO)C[C@@H]1C	label 0
CCCCn1nc(C(=O)Nc2cccc(C(=O)NC3CC3)c2)c2ccccc2c1=O	label 0
Cc1ccccc1C(=O)Nc1ccccc1NC(=O)c1ccccc1C	label 0
CC(C)(C)OC(=O)C[C@@H]1C/C=C\C[C@@H](CC(=O)N[C@@H](CO)Cc2ccccc2)C(=O)N2CCC[C@H]2COC1=O	label 0
O=C(C(Cl)Cl)N1CCN(c2ccccn2)CC1	label 0
COCCOC(=O)c1[nH]c2c(c1C)C(=O)CC(c1ccc(OC)cc1)C2 (stereo not drawn)	label 0
COc1cccc(C(=O)NNC(=O)/C=C/c2ccccc2)c1	label 0
Cc1ccc(N2C(=O)S/C(=C/c3cn(C)c4ccccc34)C2=O)cc1	label 0
CCC1(C)NC(=O)N(CC(=O)N2CCN(c3cccc(Cl)c3)CC2)C1=O (stereo not drawn)	label 0
Cc1ccc(C)c(NC(=O)C(c2ccccc2)N2CCN(CC(=O)NC3CC3)CC2)c1 (stereo not drawn)	label 0
Cc1cc(Cl)ccc1OCCCC(=O)NCc1ccncc1	label 0
O=c1[nH]c(NCCO)nnc1Cc1ccc(Cl)cc1	label 0
Cc1cc(C)n(CC(O)CN(c2ccccc2)S(=O)(=O)c2ccc3ccccc3c2)n1 (stereo not drawn)	label 0
CCOC(=O)c1[nH]c2c(c1-c1ccccc1)C(=O)CC(c1ccc(Cl)cc1)C2 (stereo not drawn)	label 0
Cc1ccc(O)c(NC(=O)COc2cc(C)ccc2C)c1	label 0
COc1cccc(C(=O)Nc2ccc(N3CCN(C(=O)c4ccco4)CC3)cc2)c1	label 1
Cc1ccccc1C(=O)Nc1ccc(N2CCCCCC2)cc1	label 1
Cc1cccc(N=C2NC(=O)/C(=C/c3cn(C)c4ccccc34)S2)c1	label 1
CCCCN(C(=O)c1cccc(N2C(=O)c3ccccc3C2=O)c1)c1c(N)n(CCCC)c(=O)[nH]c1=O	label 0
Cc1nc2ccc(NC(=O)C3CCCCC3)cc2s1	label 0
O=C(/C=C/c1cccc(C(F)(F)F)c1)N1CCN(c2ccccn2)CC1	label 1
Cc1cccc(OCC(=O)NC(=S)Nc2ccccc2N2CCOCC2)c1	label 0
COc1cccc(C(=O)Nc2ccc(NC(=O)c3ccco3)cn2)c1	label 0
C=CCn1c(=S)[nH]c2nc3c(cc2c1=O)COC(C)(C)C3	label 0
